assay_target: T1, D2
T1 construct: also called LILRB4 D2-hIgG1-Fc; second Ig-like domain of LILRB4 as Fc fusion
T1 sequence (fusion chain, as listed by the source): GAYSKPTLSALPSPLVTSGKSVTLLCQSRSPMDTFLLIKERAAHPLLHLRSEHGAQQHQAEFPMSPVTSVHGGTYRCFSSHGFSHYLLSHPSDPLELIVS
assay_name: matrix of binding to LILRB4 domain-Fc fusions (FIG. 47); ELISA per paragraph 433
reported_metric: binding result

In: // Input: anti-LILRB4 rabbit monoclonal antibody #210 (antibody, V domains shown) VH: EQSVEESGGRLVTPGTPLTLTCTVSGFSLSSYIMGWVRQARGKGLEYIGAINTDGATYYATWAKGRFTISRTSTTVHLKVTSPTTEDTATYFCARSLAPGDSNINLWGQGTLVTISS VL: ELVLTQTPSPVSAAVGGTVTISCQSSESVYRNNRLAWYQQKPGQPPKRLIYLASTLASGVPSRFKGSGSGTQFTLTISDVQCDDAAAYYCAGDSGVGIIAFGGGTEVEIK . Output its binding result only.
Out: no binding

In: // Input: anti-LILRB4 rabbit monoclonal antibody #129 (antibody, V domains shown) VH: EQSVKESGGGLVKPGASLTLTCTASGFSFSSSYHMCWVRQAPGKGLEWIGCIATGYGSTYYASWAKGRFTISKTSSTTVTLQVPSLTAADTATCFCARGYYRYTSDSYGYFDLWGPGTLVTISS VL: ELVLTQTASPVSAAVGGTVTVNCQASQSISSGYLSWYQQKPGQPPKLLIYYASRLASGVPSRFSGSGSGTEYTLTISGVQCDDAATYYCLYVSYDGTTTDNAFGGGTEVEIK . Output its binding result only.
Out: no binding

In: // Input: anti-LILRB4 rabbit monoclonal antibody #128-3 (antibody, V domains shown) VH: EQSLEESGGDLVTPGASLTLTCKASGIDFSNHYYIYWVRQAPGKGLEWIGCIFSGDSASTYYASWAKGRFTISKSSSPTVTLQMTSLTAADTATYFCARGMSTNDWASDLWGPGTMVTVSS VL: ELVMTQTPASVSAAVGGTVTINCQASESINSIYLAWYQQKPGQRPKLLIYRASTLASGVSSRFKGSASGTGFTLTISDLECADAATYYCQQSYDWGDVENTFGGGTEVEIK . Output its binding result only.
Out: no binding
